# Test system: SR leukemia
# ASSAY NAME: NCI tumour cell line growth inhibition, 48 h; in the data active = GI50 below about 0.43 µM; inactive = the rest
Classes to choose from: T = active, F = inactive

Lab log entry: COc1ccc(-c2cc(-c3ccccc3)nc(SCCCC(=O)NO)n2)cc1OC — outcome as called in the assay?
T

Lab log entry: O=C(COc1nc2ccccc2nc1-c1ccccc1)Nc1ccc(Cl)cc1 — outcome as called in the assay?
F

Lab log entry: CCO/C=N/C1=C(C#N)C(c2ccc(OC)cc2)c2sc3c(F)cccc3c2O1 (stereo unspecified) — outcome as called in the assay?
F

Lab log entry: O=C(Nc1nc(-c2ccc(Cl)cc2)cs1)c1cc(-c2ccc(Br)cc2)nc2ccc(Cl)cc12 — outcome as called in the assay?
F

Lab log entry: CCN(CC)Cc1cc(Nc2c3ccc(Cl)cc3nc3ccc(OC)cc23)ccc1O — outcome as called in the assay?
F

Lab log entry: CN(C)c1cc[n+](/C(NS(=O)(=O)c2cc(C(=O)Nc3ccc(Cl)cc3)c(Cl)cc2[S-])=C(\C#N)C(=O)c2ccccc2)cc1 — outcome as called in the assay?
F

Lab log entry: CCn1c(=O)c(Oc2ccc(F)cc2F)cc2cnc(NC3CCOCC3)nc21 — outcome as called in the assay?
F

Lab log entry: CC(=O)NS(=O)(=O)c1ccc(-n2nc(-c3ccc(Cl)cc3)cc2-c2cc(O)ccc2O)cc1 — outcome as called in the assay?
F

Lab log entry: CCC(CC)c1nc(Nc2cccc(OC)c2)c2ccccc2n1 — outcome as called in the assay?
F

Lab log entry: COC(=O)[C@@H](C)C[C@H](Cc1ccc2ccccc2c1)NC(=O)c1csc([C@@H](C[C@H](C(C)C)N(C)C(=O)[C@@H](NC(=O)[C@H]2CCCCN2C)C(C)C)OC(C)=O)n1 — outcome as called in the assay?
T

Lab log entry: COc1cccc(/C=N/[N-]C(=O)c2ccncc2)c1[O-].[Ni+2].[OH3+] — outcome as called in the assay?
F

###

# System: M14 melanoma
# ASSAY NAME: NCI tumour cell line growth inhibition, 48 h
Consider the following compounds; for each one, report its TGI.

// sample O=[N+]([O-])c1cc(Cl)c(Cl)cc1[N+](=O)[O-] , its TGI was 8.8 µM

// sample COc1ccc(CC#C/C=C/C(=O)NCC(C)C)cc1 , its TGI was > 100 µM

// sample O=[N+]([O-])c1ccc(C2=Nn3c(nnc3-c3ccccc3)SC2)o1 , its TGI was 32 µM

// sample CC1(C)C(N(O)C(=O)Nc2ccc(Cl)cc2)N(c2ccc(Cl)cc2)C(=O)N1CC(=O)N/N=C/C=C/c1ccc([N+](=O)[O-])o1 (stereo not given) , its TGI was 7.08 µM

// sample CC#CC#C/C=C1/O[C@]2(CCC(OC(=O)CC(C)C)CO2)[C@@H]2O[C@H]12 (stereo not given in full) , its TGI was 47.7 µM

###

# Test system: MCF7 breast
# ASSAY NAME: NCI tumour cell line growth inhibition, 48 h
MEASURE NAME: GI50

// sample c1ccc2cc(C[n+]3ccn(CCCCCCCCCCCCn4cc[n+](Cc5ccc6ccccc6c5)c4)c3)ccc2c1 , its GI50 was 0.512 µM

// sample CCCCCCCCCCS(=O)CC(CO)NC(=O)/C=C/c1c(C)[nH]c(=O)[nH]c1=O (configuration not stated) , its GI50 was 23.4 µM

// sample Nc1nonc1C(=Nc1ccc(F)c(Cl)c1)NO , its GI50 was 41.6 µM

// sample NCCCCCCCCCCn1c2c(c3ccccc3c1=O)C(=O)c1ccccc1-2 , its GI50 was 4.67 µM

// sample [N-]=[N+]=NCCCn1c2c(c3cc4c(cc3c1=O)OCO4)C(=O)c1ccccc1-2 , its GI50 was 7.5 µM

// sample O=C1Nc2ccccc2/C1=C\c1c(Cl)nc2sccn12 , its GI50 was 0.66 µM

// sample CC(=O)NS(=O)(=O)c1ccc(-n2nc(-c3ccc(Cl)cc3)cc2-c2cc(O)ccc2O)cc1 , its GI50 was > 100 µM

###

# Test system: OVCAR-4 ovarian
# ASSAY NAME: NCI tumour cell line growth inhibition, 48 h
MEASURE NAME: TGI

// sample C/C=C(\C)[C@@H](O)C(=O)O[C@@H]1CC(C(C)(C)O)[C@](C)(CCC(=O)OC)[C@H]2[C@H](OC(=O)[C@H](O)[C@H](C)CC)C[C@]3(C)C(=CC[C@H]3[C@H]3CO[C@H](C=C(C)C)C3)[C@]12C (some centres undefined) , its TGI was 41.8 µM

// sample C1CSC(Sc2nc(SC3=NCCS3)nc(SC3=NCCS3)n2)=N1 , its TGI was > 100 µM

// sample O=C(COc1nc2ccccc2nc1-c1ccccc1)Nc1ccc(Cl)cc1 , its TGI was > 100 µM

// sample CS(=O)(=O)O[C@H]1C(=O)N(c2cc3c4ccccc4ccc3c3ccccc23)[C@@H]1c1ccccc1 , its TGI was > 100 µM

###

# Tested on: RXF 393 renal
# ASSAY NAME: NCI tumour cell line growth inhibition, 48 h
Consider the following molecules; for each one, report its TGI.

// sample Cc1ccc(-n2c(=O)c3nn4c(=O)n(-c5ccc(C)cc5)c(=O)c4nn3c2=O)cc1 , its TGI was > 100 µM

// sample O=S1(=O)OCCOS(=O)(=O)C1(Br)Cc1ccccc1 , its TGI was > 100 µM

// sample CC1(C)CN(c2cc(C(F)(F)F)cc3cncn23)CCC12NC(=O)NC2=O (centres undefined) , its TGI was 61.1 µM

// sample C/C=C(\C)[C@@H](O)C(=O)O[C@@H]1CC(C(C)(C)O)[C@](C)(CCC(=O)OC)[C@H]2[C@H](OC(=O)[C@H](O)[C@H](C)CC)C[C@]3(C)C(=CC[C@H]3[C@H]3CO[C@H](C=C(C)C)C3)[C@]12C (some centres undefined) , its TGI was 32.9 µM

// sample CNCC(=O)Nc1ccc2c(c1)C(=O)c1ccc(NC(=O)CNC)cc1C2=O , its TGI was 20.3 µM

// sample O=C(Nc1ccc(OCc2nnc(-c3ccc(Cl)cc3)o2)c(F)c1)c1ccc(Cl)c(C(F)(F)F)c1 , its TGI was > 50 µM

// sample O=c1cc(-c2ccccc2)c2ccc(O)c(CN(CCCl)CCCl)c2o1 , its TGI was 30.1 µM

// sample O=C1C(Cl)=C(Cl)C(=O)C2=C1C1c3ccccc3C2c2ccccc21 , its TGI was 75.2 µM

// sample Clc1cccc(Cl)c1C1SCc2nc3ccccc3n21 (centres undefined) , its TGI was > 100 µM

###

# Tested on: HCC-2998 colon
# ASSAY NAME: NCI tumour cell line growth inhibition, 48 h; in the data active = GI50 below about 0.43 µM; inactive = the rest
Classes to choose from: y = active, n = inactive

Lab log entry: O=C(Nc1nc(-c2ccc(Cl)cc2)cs1)c1cc(-c2ccc(Br)cc2)nc2ccc(Cl)cc12 — outcome as called in the assay?
n

Lab log entry: CN(C)c1cc[n+](/C(NS(=O)(=O)c2cc(C(=O)Nc3ccc(Cl)cc3)c(Cl)cc2[S-])=C(\C#N)C(=O)c2ccccc2)cc1 — outcome as called in the assay?
n

Lab log entry: C=C1C(=O)O[C@H]2[C@H]1CC/C(COC(=O)/C=C/C(=O)NCc1ccc(Cn3c(=O)sn(-c4ccccc4)c3=O)cc1)=C\CC[C@@]1(C)O[C@@H]21 — outcome as called in the assay?
n

Lab log entry: NCCCOc1cc2ccccc2cc1C(=O)NCCOc1nc2ccccc2cc1C(=O)Nc1ccc(Cl)cc1O — outcome as called in the assay?
n

Lab log entry: COc1cc2c3c(n(CCCNCCNCCN)c(=O)c2cc1OC)-c1cc2c(cc1C3=O)OCO2 — outcome as called in the assay?
n

Lab log entry: COc1ccc(CC(C)=C(c2ccc(OCCN3CCCCCC3)cc2)c2ccc(OCCN3CCCCCC3)cc2)cc1 — outcome as called in the assay?
y

Lab log entry: O=C(/C=C/c1ccc(Cl)cc1)c1ccc(Nc2nc(Nc3ccc(F)cc3)nc(Nc3ccc(F)cc3)n2)cc1 — outcome as called in the assay?
n

Lab log entry: CCOC(=O)N1C/C(=C/c2ccc(Cl)cc2)C(=O)/C(=C/c2ccc(Cl)cc2)C1 — outcome as called in the assay?
n

Lab log entry: O=c1c2cc(F)ccc2sc2c(Nc3ccncc3)nc3ccccc3c12 — outcome as called in the assay?
n

Lab log entry: Clc1ccc(OCc2nn3c(CCCCc4nnc5sc(COc6ccc(Cl)cc6Cl)nn45)nnc3s2)c(Cl)c1 — outcome as called in the assay?
n

###

# System: NCI-H23 lung
# ASSAY NAME: NCI tumour cell line growth inhibition, 48 h
MEASURE NAME: TGI

Entry C=CCN1CCN([C@H](c2ccc(C(=O)N(CC)CC)cc2)c2cccc(OC)c2)CC1 : TGI on NCI-H23 lung = > 25 µM

Entry CC(=O)O[C@H]1C(=O)[C@@]2(C)[C@H]([C@H](OC(=O)c3ccccc3)[C@]3(O)C[C@H](OC(=O)[C@H](O)[C@@H](NC(=O)c4ccccc4)c4ccccc4C)C(C)=C1C3(C)C)[C@]1(OC(C)=O)CO[C@@H]1C[C@@H]2O : TGI on NCI-H23 lung = > 11.6 µM

Entry CCN(CC)CCNc1ccc2nnn3c4ccc([N+](=O)[O-])cc4c(=O)c1c23 : TGI on NCI-H23 lung = 98.5 µM

Entry CCn1c(=O)c(Oc2ccc(F)cc2F)cc2cnc(NC3CCOCC3)nc21 : TGI on NCI-H23 lung = > 25 µM

Entry NC1CCCCC1N.Nc1c(N=Nc2ccc(-c3ccc(N=Nc4cc(S(=O)(=O)[O-])c5ccccc5c4N)cc3)cc2)cc(S(=O)(=O)[O-])c2ccccc12.[OH3+].[OH3+].[Pt+4] : TGI on NCI-H23 lung = > 100 µM

Entry CC1CCC2(OCCO2)[C@]2(C)CC(O)C(=O)C=C12 (some centres undefined) : TGI on NCI-H23 lung = > 100 µM

Entry N#Cc1c(-c2ccccc2)cc(-c2ccccc2)n(CCCC(=O)NO)c1=O : TGI on NCI-H23 lung = 9.94 µM

Entry NC(=S)N/N=C1\CCCCc2ccccc21 : TGI on NCI-H23 lung = > 10 µM

Entry CCOC(=O)C1C(O)CC2c3ccccc3-c3ccccc3C21 (centres undefined) : TGI on NCI-H23 lung = > 100 µM

Data provenance: PubChem BioAssay (NCI)
